Reference source for all entries: ChEMBL document CHEMBL3856231

Assay: Half life in Sprague-Dawley rat at 1 mg/kg, iv by LC/MS/MS analysis
Assay type: ADME, organism-based
Settings: in vivo
PROPERTY: half-life (h)

| COMPOUND SMILES | EXPERIMENTAL VALUE |
| --- | --- |
| CNC(=O)c1ccccc1Nc1nc(Nc2ccc3c(c2OC)CCC[C@H](N2CCN(CCO)CC2)C3)ncc1Cl | 2 |

* * *

Assay: AUC (0 to infinity) in cynomolgus monkey at 1 mg/kg, iv by LC/MS/MS analysis
Type: ADME, organism-based, Macaca fascicularis
Parameters: dose 1 mg/kg, route intravenous, time infinity
Settings: in vivo

| COMPOUND | UNIT ANNOTATION | AUC(0-inf) |
| --- | --- | --- |
| CNC(=O)c1ccccc1Nc1nc(Nc2ccc3c(c2OC)CCC[C@H](N2CCN(CCO)CC2)C3)ncc1Cl [CEP-37440] | ng·h/mL | 554 |

* * *

Biological target: Focal adhesion kinase 1 (Homo sapiens)
Sequence (Q05397 whole entry): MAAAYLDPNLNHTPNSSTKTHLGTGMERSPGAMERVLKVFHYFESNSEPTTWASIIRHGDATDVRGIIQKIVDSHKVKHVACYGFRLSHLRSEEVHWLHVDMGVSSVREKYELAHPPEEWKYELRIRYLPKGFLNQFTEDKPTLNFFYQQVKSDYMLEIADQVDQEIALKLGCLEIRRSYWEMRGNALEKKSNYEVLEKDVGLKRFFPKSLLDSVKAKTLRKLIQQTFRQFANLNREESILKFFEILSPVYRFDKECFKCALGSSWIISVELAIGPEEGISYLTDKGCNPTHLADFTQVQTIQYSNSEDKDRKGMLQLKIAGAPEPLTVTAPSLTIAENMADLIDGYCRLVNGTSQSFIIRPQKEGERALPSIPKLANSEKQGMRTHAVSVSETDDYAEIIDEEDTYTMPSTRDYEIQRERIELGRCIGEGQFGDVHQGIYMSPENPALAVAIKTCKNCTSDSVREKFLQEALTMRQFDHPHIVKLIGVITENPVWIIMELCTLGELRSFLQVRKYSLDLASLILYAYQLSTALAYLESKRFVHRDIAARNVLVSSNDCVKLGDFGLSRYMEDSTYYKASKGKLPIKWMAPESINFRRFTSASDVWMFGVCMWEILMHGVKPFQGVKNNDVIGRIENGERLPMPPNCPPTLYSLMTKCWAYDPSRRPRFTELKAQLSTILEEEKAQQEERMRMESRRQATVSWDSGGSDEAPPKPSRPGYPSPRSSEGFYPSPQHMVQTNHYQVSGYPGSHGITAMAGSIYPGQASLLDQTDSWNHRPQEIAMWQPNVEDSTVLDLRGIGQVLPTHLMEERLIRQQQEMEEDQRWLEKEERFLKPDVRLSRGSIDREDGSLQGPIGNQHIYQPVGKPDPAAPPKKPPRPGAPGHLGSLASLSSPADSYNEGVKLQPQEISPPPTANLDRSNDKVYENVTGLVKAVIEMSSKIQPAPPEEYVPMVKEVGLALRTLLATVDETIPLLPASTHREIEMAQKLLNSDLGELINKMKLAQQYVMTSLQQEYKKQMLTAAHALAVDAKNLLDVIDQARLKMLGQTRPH
pIC50: −log10 of the molar value.
PROPERTY: pIC50

| COMPOUND SMILES | PROPERTY | EXPERIMENTAL VALUE |
| --- | --- | --- |
| COc1c(Nc2ncc(Cl)c(N[C@H]3[C@@H](C(N)=O)[C@@H]4C=C[C@H]3C4)n2)ccc2c1CC[C@@H](N1CCOCC1)CC2 | pIC50 | 7.52 to 7.60 |

* * *

Reported bioavailability values follow for various compounds
Experiment: Oral bioavailability in Sprague-Dawley rat at 5 mg/kg by LC/MS/MS analysis
Format: ADME, organism-based
Conditions: in vivo
PROPERTY: bioavailability (%)

| COMPOUND | EXPERIMENTAL VALUE |
| --- | --- |
| COc1c(Nc2ncc(Cl)c(Nc3ccccc3S(=O)(=O)N(C)C)n2)ccc2c1CCCC(N1CCN(CCO)CC1)C2 (racemic) | 28 |
| COc1c(Nc2ncc(Cl)c(N[C@H]3[C@@H](C(N)=O)[C@@H]4C=C[C@H]3C4)n2)ccc2c1CCCC(N1CCN(C)CC1)C2 (single isomer, unassigned) | 11 |
| COc1c(Nc2ncc(Cl)c(Nc3ccccc3N3CCCS3(=O)=O)n2)ccc2c1CCCC(N1CCN(CCO)CC1)C2 (racemic) | 48 |
| CNC(=O)c1ccccc1Nc1nc(Nc2ccc3c(c2OC)CCC[C@H](N2CCN(CCO)CC2)C3)ncc1Cl | 42 |
| COc1c(Nc2ncc(Cl)c(Nc3ccccc3-c3nccn3C)n2)ccc2c1CCCC(N1CCN(CCO)CC1)C2 (racemic) | 19 |
| COc1c(Nc2ncc(Cl)c(Nc3ccccc3N(C)S(C)(=O)=O)n2)ccc2c1CCCC(N1CCN(CCO)CC1)C2 (racemic) | 38 |
| CNC(=O)c1ccccc1Nc1nc(Nc2ccc3c(c2OC)CCC[C@@H](N2CCN(CCO)CC2)C3)ncc1Cl | 18 |
| COc1c(Nc2ncc(Cl)c(Nc3ccccc3N(C)S(C)(=O)=O)n2)ccc2c1CCCC(N1CCN(C)CC1)C2 (racemic) | 9 |
| CNC(=O)c1ccccc1Nc1nc(Nc2ccc3c(c2OC)CCCC(N2CCN(CCO)CC2)C3)ncc1Cl (racemic) | 47 |
| COc1c(Nc2ncc(Cl)c(Nc3ccccc3-n3cccn3)n2)ccc2c1CCCC(N1CCN(CCO)CC1)C2 (racemic) | 19 |
